B1: library; a variant is named by its letters at X, in order (parent)
chain: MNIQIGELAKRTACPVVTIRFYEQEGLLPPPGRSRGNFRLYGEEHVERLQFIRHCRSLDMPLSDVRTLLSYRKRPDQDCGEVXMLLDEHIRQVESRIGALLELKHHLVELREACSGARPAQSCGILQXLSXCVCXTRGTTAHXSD

Variants of: B1
test: sfGFP reporter fluorescence (15 h) (µM FITC); higher = stronger transcriptional activation
protocol.conditions: library round: Round 2; ligand: 30 µM Zn
endpoint: sfGFP reporter fluorescence
The reply should be a number, written without any unit.

Sample records with sfGFP reporter fluorescence:
[[record]]
mutant_designation = "SGDAY"
endpoint = "sfGFP reporter fluorescence"
value_reported = 0.399

[[record]]
mutant_designation = "TIDDP L107C E109H"
endpoint = "sfGFP reporter fluorescence"
value_reported = 2.03

[[record]]
mutant_designation = "TGDDA E25V"
endpoint = "sfGFP reporter fluorescence"
value_reported = 0.252


[ask] For the variant shown here, TGHAP , give the reported sfGFP reporter fluorescence.
[reply] 0.394

[ask] Name the recorded sfGFP reporter fluorescence for NGAPL .
[reply] 1.22

[ask] Entry THDDW : reported sfGFP reporter fluorescence = ?
[reply] 0.0889
